# TESTED_SYSTEM: recombinant human EGFR L858R/C797S double mutant protein (Homo sapiens (Human), UniProt P00533, C797S/L858R)
# Sequence (P00533 25-1210 C797S/L858R): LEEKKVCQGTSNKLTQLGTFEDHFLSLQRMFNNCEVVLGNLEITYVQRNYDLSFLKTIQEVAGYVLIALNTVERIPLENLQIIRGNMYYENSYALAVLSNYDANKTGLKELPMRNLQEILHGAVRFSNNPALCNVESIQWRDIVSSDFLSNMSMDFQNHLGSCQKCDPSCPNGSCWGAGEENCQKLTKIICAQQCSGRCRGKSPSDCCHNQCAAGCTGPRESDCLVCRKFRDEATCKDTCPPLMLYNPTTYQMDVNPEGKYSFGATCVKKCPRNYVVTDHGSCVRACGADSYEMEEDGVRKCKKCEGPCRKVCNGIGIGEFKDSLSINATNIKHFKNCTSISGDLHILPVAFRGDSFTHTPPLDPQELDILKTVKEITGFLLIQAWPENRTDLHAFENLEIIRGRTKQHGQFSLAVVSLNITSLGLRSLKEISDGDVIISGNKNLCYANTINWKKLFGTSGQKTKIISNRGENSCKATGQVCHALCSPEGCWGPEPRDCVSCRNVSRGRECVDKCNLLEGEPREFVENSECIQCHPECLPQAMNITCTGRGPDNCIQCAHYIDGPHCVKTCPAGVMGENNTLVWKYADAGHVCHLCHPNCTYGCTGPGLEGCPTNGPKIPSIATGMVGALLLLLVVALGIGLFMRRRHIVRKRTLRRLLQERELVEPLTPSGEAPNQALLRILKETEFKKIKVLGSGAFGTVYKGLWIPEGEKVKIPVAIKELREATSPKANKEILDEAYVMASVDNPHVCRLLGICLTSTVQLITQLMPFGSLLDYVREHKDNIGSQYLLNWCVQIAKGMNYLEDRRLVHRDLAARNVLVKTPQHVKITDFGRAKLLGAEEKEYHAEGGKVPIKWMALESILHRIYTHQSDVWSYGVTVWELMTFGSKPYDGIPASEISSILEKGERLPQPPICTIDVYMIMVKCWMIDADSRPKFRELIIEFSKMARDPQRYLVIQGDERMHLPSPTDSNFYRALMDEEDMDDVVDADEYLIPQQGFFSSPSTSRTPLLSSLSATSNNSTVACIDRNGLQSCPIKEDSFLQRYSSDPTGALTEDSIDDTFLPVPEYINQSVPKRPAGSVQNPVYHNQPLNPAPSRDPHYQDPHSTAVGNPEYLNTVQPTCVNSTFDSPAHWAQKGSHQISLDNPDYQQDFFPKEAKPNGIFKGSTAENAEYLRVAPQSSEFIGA
# TEST: Biological Activity Assay B: biochemical assay against EGFR L858R/C797S protein (EGFR LR/CS)
ASSAY_ENDPOINT: IC50 (nM)

Solved entries (count: 3):
Fc1ccc(-c2nn(C3CCOC3)cc2-c2ncnc3oc(-c4ccccc4)cc23)cc1 (racemic) ... 0.58
Fc1ccc(-c2nn(CC(F)F)cc2-c2ncnc3oc(-c4ccccc4)cc23)cc1 ... 0.7
Fc1ccc(-c2nn(CC3COC3)cc2-c2ncnc3oc(-c4ccccc4)cc23)cc1 ... 0.594

[P] O=S1(=O)CC[C@@H](n2cc(-c3ncnc4oc(-c5ccccc5)cc34)c(-c3ccc(F)cc3)n2)C1 (single isomer, unassigned)
[Q] CC(C)(O)CCn1cc(-c2ncnc3oc(-c4ccccc4)cc23)c(-c2ccc(F)cc2)n1
Please let me know which one, P or Q , has a lower measured IC50 value. Give the label under which the chosen entry appears. P
(P: 0.65 nM, Q: 1.17 nM)

---

# TESTED_SYSTEM: recombinant human EGFR exon 19 deletion/C797S double mutant protein (Homo sapiens (Human), UniProt P00533, C797S/DEL746-750)
# Sequence (P00533 other isoform, or with tags, fused parts or gaps C797S/del 1-668/del 746-750 limits assumed): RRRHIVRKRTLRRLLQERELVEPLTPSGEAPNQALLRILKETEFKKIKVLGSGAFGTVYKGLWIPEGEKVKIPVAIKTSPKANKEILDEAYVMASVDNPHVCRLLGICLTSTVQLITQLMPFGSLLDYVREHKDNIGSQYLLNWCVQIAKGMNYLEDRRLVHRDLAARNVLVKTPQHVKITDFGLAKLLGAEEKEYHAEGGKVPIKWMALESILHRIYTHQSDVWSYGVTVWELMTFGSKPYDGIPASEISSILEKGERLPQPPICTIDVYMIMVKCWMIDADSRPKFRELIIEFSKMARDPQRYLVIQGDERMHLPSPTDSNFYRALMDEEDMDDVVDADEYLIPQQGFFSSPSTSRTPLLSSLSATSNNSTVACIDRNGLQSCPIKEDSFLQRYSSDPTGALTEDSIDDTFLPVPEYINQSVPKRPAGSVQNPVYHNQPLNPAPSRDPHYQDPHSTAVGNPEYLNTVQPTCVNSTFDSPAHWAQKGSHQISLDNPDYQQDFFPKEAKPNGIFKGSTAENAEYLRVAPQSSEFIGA
# TEST: Biological Activity Assay C: biochemical assay against EGFR exon 19 deletion/C797S protein (EGFR d19/CS)
ASSAY_ENDPOINT: IC50 (nM)

[A] Fc1ccc(-c2nn(C3COC3)cc2-c2ncnc3oc(-c4ccccc4)cc23)cc1
[B] OCCCc1nc(-c2ccc(F)cc2)n(-c2ccnc3[nH]c(-c4ccccc4)cc23)n1
[C] O=S1(=O)CC(n2cc(-c3ncnc4oc(-c5ncccn5)cc34)c(-c3ccc(F)cc3)n2)C1
[D] O[C@H]1C[C@@H](n2cc(-c3ncnc4oc(-c5ccccc5)cc34)c(-c3ccc(F)cc3)n2)C1
[E] Fc1ccc(-c2nn(CCCC(F)F)cc2-c2ncnc3oc(-c4ccccc4)nc23)cc1
Sort the items above by IC50, starting with the smallest value. The labels, placed in the requested order, form the answer. D, A, B, E, C
(D: 0.12 nM, A: 0.446 nM, B: 1.66 nM, E: 4.22 nM, C: 6.89 nM)

[1] Fc1ccc(-c2nn([C@H]3CCOC[C@H]3F)cc2-c2ncnc3oc(-c4ccccc4)cc23)cc1 (single isomer, unassigned) [Example 210]
[2] CS(=O)(=O)n1cc(-c2ncnc3oc(-c4ccccc4)cc23)c(-c2ccc(F)cc2)n1
Select one. Lower IC50: 1 or 2 Output the label that corresponds to your choice. 1
(1: 0.5 nM, 2: 5.19 nM)

---

# TESTED_SYSTEM: recombinant human EGFR exon 19 deletion/C797S double mutant protein (Homo sapiens (Human), UniProt P00533, C797S/DEL746-750)
# TEST: Biological Activity Assay C: biochemical assay against EGFR exon 19 deletion/C797S protein (EGFR d19/CS)
pIC50: −log10 of the molar value.
ASSAY_ENDPOINT: pIC50

Please review the entries below; each comes with its answer.
O=S1(=O)CC[C@@H](Cn2cc(-c3ncnc4oc(-c5ccccc5)cc34)c(-c3ccc(F)cc3)n2)C1 (single isomer, unassigned) [Example 97] ... 9.47
C[C@H]1C[C@H](n2cc(-c3ncnc4oc(-c5ccccc5)cc34)c(-c3ccc(F)cc3)n2)CN1S(C)(=O)=O [Example 197] ... 9.35

[I] Cn1ncc(-c2cc3c(-c4cn(CC(C)(C)O)nc4-c4ccc(F)cc4)ncnc3o2)c1C(F)F [Example 267]
[II] Cc1cc(-c2cc3c(-c4cn(C5CS(=O)(=O)C5)nc4-c4ccc(F)cc4)ncnc3o2)n(C)n1 [Example 243]
Endpoint returns the identifier whose pIC50 is numerically larger, either I or II . Indicate which entry you chose by stating its label. I
